Provenance of the data: patent US6706266

- ASSAY SYSTEM: T1, gp130 on HepG2 B6 cells (UniProt P40189 23-918, limits assumed)
- T1 sequence (looked up): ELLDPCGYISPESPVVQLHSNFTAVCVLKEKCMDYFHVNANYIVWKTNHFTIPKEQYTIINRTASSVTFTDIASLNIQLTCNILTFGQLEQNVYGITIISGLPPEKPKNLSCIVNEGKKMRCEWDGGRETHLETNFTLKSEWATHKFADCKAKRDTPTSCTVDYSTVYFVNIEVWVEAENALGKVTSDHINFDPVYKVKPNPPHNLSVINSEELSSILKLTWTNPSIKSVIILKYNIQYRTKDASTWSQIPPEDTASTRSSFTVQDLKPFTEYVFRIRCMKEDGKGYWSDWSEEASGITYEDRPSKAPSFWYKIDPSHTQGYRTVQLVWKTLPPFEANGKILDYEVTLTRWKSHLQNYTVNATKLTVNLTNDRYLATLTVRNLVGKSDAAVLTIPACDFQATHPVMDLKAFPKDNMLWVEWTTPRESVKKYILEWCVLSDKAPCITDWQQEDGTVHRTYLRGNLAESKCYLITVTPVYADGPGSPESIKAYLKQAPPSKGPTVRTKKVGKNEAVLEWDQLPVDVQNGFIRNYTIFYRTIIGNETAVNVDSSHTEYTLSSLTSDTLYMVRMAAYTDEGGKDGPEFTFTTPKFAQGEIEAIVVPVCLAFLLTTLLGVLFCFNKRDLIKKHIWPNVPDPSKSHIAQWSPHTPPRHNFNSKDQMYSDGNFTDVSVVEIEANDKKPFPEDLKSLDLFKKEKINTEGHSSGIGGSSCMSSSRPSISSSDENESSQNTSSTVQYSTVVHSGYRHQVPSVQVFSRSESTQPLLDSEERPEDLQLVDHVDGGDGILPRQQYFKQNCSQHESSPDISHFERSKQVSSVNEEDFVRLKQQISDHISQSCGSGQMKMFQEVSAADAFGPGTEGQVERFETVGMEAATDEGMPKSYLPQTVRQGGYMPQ
- ASSAY: cell-based or functional assay
hey, just use rule met if measured sPAP HepG2 B6 assay: Expt 1 EC50 is less than 0.03 µg/mL, otherwise rule not met

Below, 5 binders whose answers are already recorded.
| BINDER | CATEGORY LABEL |
| --- | --- |
| OSM-GST mutant Q25A (ligand, not shown: a dimerising Fc or GST; large carriers; small tags and cut ends, Alanine mutant of m4; also called (26)Q25A; 26 Q25A) AAIGSCSKEYRVLLGQLQKQTDLMADTSRLLDPYIRIQGLDVPKLREHCRERPGAFPSEETLRGLGRRGFLQTLNATLGCVLHRLADLEQRLPKAQDLERSGLNIEDLEKLQMARPNILGLRNNIYCMAQLLDNSDTAEPTKAGRGASQPPTPTPASDAFQRKLEGCRFLHGYHRFMHSVGRVFSKWGESPNRSRR | rule met |
| OSM-GST mutant Y10A (ligand, not shown: a dimerising Fc or GST; large carriers; small tags and cut ends, Alanine mutant of m4; also called (4)Y10A; 4 Y10A) AAIGSCSKEARVLLGQLQKQTDLMQDTSRLLDPYIRIQGLDVPKLREHCRERPGAFPSEETLRGLGRRGFLQTLNATLGCVLHRLADLEQRLPKAQDLERSGLNIEDLEKLQMARPNILGLRNNIYCMAQLLDNSDTAEPTKAGRGASQPPTPTPASDAFQRKLEGCRFLHGYHRFMHSVGRVFSKWGESPNRSRR | rule not met |
| OSM-GST mutant R122A (ligand, not shown: a dimerising Fc or GST; large carriers; small tags and cut ends, Alanine mutant of m4; also called (21)R122A; 21 R122A) AAIGSCSKEYRVLLGQLQKQTDLMQDTSRLLDPYIRIQGLDVPKLREHCRERPGAFPSEETLRGLGRRGFLQTLNATLGCVLHRLADLEQRLPKAQDLERSGLNIEDLEKLQMARPNILGLANNIYCMAQLLDNSDTAEPTKAGRGASQPPTPTPASDAFQRKLEGCRFLHGYHRFMHSVGRVFSKWGESPNRSRR | rule not met |
| OSM-GST mutant L119A (ligand, not shown: a dimerising Fc or GST; large carriers; small tags and cut ends, Alanine mutant of m4; also called (19)L119A; 19 L119A) AAIGSCSKEYRVLLGQLQKQTDLMQDTSRLLDPYIRIQGLDVPKLREHCRERPGAFPSEETLRGLGRRGFLQTLNATLGCVLHRLADLEQRLPKAQDLERSGLNIEDLEKLQMARPNIAGLRNNIYCMAQLLDNSDTAEPTKAGRGASQPPTPTPASDAFQRKLEGCRFLHGYHRFMHSVGRVFSKWGESPNRSRR | rule met |
| OSM-GST mutant L14A (ligand, Alanine mutant of m4; also called (7)L14A; 7 L14A; not shown: Its linker is left out) AAIGSCSKEYRVLAGQLQKQTDLMQDTSRLLDPYIRIQGLDVPKLREHCRERPGAFPSEETLRGLGRRGFLQTLNATLGCVLHRLADLEQRLPKAQDLERSGLNIEDLEKLQMARPNILGLRNNIYCMAQLLDNSDTAEPTKAGRGASQPPTPTPASDAFQRKLEGCRFLHGYHRFMHSVGRVFSKWGESPNRSRR | rule met |

Okay, next one:
stdin: # TODO verify sPAP HepG2 B6 assay: Expt 1 EC50 < 0.03 µg/mL strictly for this binder: OSM-GST mutant P116A (ligand, not shown: a dimerising Fc or GST; large carriers; small tags and cut ends, Alanine mutant of m4; also called (17)P116A; 17 P116A) AAIGSCSKEYRVLLGQLQKQTDLMQDTSRLLDPYIRIQGLDVPKLREHCRERPGAFPSEETLRGLGRRGFLQTLNATLGCVLHRLADLEQRLPKAQDLERSGLNIEDLEKLQMARANILGLRNNIYCMAQLLDNSDTAEPTKAGRGASQPPTPTPASDAFQRKLEGCRFLHGYHRFMHSVGRVFSKWGESPNRSRR
stdout: rule met
